- subject of test: feline FcRn complex (FcRn-α subunit and β-microglobulin), biotin labeled (feline)
- assay text: SPR, pH 7.4
pKd: −log10 of the molar value.

| binder | pKd |
| --- | --- |
| feline IgG1a S252F/S434F (antibody, part only; not given: Variable domains, not shown: another chain or arm of the molecule) constant: ASTTAPSVFPLAPSCGTTSGATVALACLVLGYFPEPVTVSWNSGALTSGVHTFPAVLQASGLYSLSSMVTVPSSRWLSDTFTCNVAHPPSNTKVDKTVRKTDHPPGPKPCDCPKCPPPEMLGGPSIFIFPPKPKDTLFISRTPEVTCLVVDLGPDDSDVQITWFVDNTQVYTAKTSPREEQFNSTYRVVSVLPILHQDWLKGKEFKCKVNSKSLPSPIERTISKAKGQPHEPQVYVLPPAQEELSRNKVSVTCLIKSFHPPDIAVEWEITGQPEPENNYRTTPPQLDSDGTYFVYSKLSVDRSHWQRGNTYTCSVSHEALHFHHTQKSLTQSPGK | 5.63 |
| feline IgG1a L309I (antibody, part only; not given: variable domains, not shown: another chain or arm of the molecule) constant: ASTTAPSVFPLAPSCGTTSGATVALACLVLGYFPEPVTVSWNSGALTSGVHTFPAVLQASGLYSLSSMVTVPSSRWLSDTFTCNVAHPPSNTKVDKTVRKTDHPPGPKPCDCPKCPPPEMLGGPSIFIFPPKPKDTLSISRTPEVTCLVVDLGPDDSDVQITWFVDNTQVYTAKTSPREEQFNSTYRVVSVLPIIHQDWLKGKEFKCKVNSKSLPSPIERTISKAKGQPHEPQVYVLPPAQEELSRNKVSVTCLIKSFHPPDIAVEWEITGQPEPENNYRTTPPQLDSDGTYFVYSKLSVDRSHWQRGNTYTCSVSHEALHSHHTQKSLTQSPGK | 5.34 |
| feline IgG1a S428Y/Q311W/D312P (antibody, part only; not given: Variable domains, not shown: another chain or arm of the molecule) constant: ASTTAPSVFPLAPSCGTTSGATVALACLVLGYFPEPVTVSWNSGALTSGVHTFPAVLQASGLYSLSSMVTVPSSRWLSDTFTCNVAHPPSNTKVDKTVRKTDHPPGPKPCDCPKCPPPEMLGGPSIFIFPPKPKDTLSISRTPEVTCLVVDLGPDDSDVQITWFVDNTQVYTAKTSPREEQFNSTYRVVSVLPILHWPWLKGKEFKCKVNSKSLPSPIERTISKAKGQPHEPQVYVLPPAQEELSRNKVSVTCLIKSFHPPDIAVEWEITGQPEPENNYRTTPPQLDSDGTYFVYSKLSVDRSHWQRGNTYTCSVYHEALHSHHTQKSLTQSPGK | 5.38 |
| feline IgG1a S252H/S428M/Q311W (antibody, part only; not given: Variable domains, not shown: another chain or arm of the molecule) constant: ASTTAPSVFPLAPSCGTTSGATVALACLVLGYFPEPVTVSWNSGALTSGVHTFPAVLQASGLYSLSSMVTVPSSRWLSDTFTCNVAHPPSNTKVDKTVRKTDHPPGPKPCDCPKCPPPEMLGGPSIFIFPPKPKDTLHISRTPEVTCLVVDLGPDDSDVQITWFVDNTQVYTAKTSPREEQFNSTYRVVSVLPILHWDWLKGKEFKCKVNSKSLPSPIERTISKAKGQPHEPQVYVLPPAQEELSRNKVSVTCLIKSFHPPDIAVEWEITGQPEPENNYRTTPPQLDSDGTYFVYSKLSVDRSHWQRGNTYTCSVMHEALHSHHTQKSLTQSPGK | 7.26 |

// provenance: patent US20240400708A1
